IC50 (nM), HT29 meso+ cells, MTT proliferation assay overview
molecular target: Mesothelin (SwissProt reference Q13421-3) (Homo sapiens, UniProt Q13421 37-622); experiment: cell-based or functional assay
The answer is to be given in nM; state only the numeric part.

Binder: Example 152, conjugate of anti-mesothelin antibody MF-Ta (antibody, human IgG1, lambda, V domains shown, toxophore-linker on Lys NH, sites not given) VH: QVELVQSGAEVKKPGESLKISCKGSGYSFTSYWIGWVRQAPGKGLEWMGIIDPGDSRTRYSPSFQGQVTISADKSISTAYLQWSSLKASDTAMYYCARGQLYGGTYMDGWGQGTLVTVSS VL: DIALTQPASVSGSPGQSITISCTGTSSDIGGYNSVSWYQQHPGKAPKLMIYGVNNRPSGVSNRFSGSKSGNTASLTISGLQAEDEADYYCSSYDIESATPVFGGGTKLTVLG
Measurement Units: nM
Quantitative Result: 4.1
--
Binder: Example 157, conjugate of anti-mesothelin antibody MF-Ta (antibody, human IgG1, lambda, V domains shown, toxophore-linker, coupling residue not stated) VH: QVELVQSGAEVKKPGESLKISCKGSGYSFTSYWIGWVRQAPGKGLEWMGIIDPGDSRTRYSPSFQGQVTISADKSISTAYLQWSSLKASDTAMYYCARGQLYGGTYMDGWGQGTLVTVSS VL: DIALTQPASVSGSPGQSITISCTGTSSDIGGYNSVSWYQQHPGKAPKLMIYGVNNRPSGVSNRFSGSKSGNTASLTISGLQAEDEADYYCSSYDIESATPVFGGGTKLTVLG
Measurement Units: nM
Quantitative Result: 0.09
--
Binder: Example 115, conjugate of anti-mesothelin antibody MF-Ta (antibody, human IgG1, lambda, V domains shown, toxophore-linker on Cys sulfur, sites not given) VH: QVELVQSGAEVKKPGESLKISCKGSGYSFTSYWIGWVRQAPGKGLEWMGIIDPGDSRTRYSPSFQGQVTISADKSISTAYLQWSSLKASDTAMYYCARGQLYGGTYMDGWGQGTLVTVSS VL: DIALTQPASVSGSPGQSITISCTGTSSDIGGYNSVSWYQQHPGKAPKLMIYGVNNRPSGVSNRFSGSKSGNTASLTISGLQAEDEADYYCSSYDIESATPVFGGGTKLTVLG
Measurement Units: nM
Quantitative Result: 0.06
--
Binder: Example 153, conjugate of anti-mesothelin antibody MF-Ta (antibody, human IgG1, lambda, V domains shown, toxophore-linker on Cys sulfur, sites not given) VH: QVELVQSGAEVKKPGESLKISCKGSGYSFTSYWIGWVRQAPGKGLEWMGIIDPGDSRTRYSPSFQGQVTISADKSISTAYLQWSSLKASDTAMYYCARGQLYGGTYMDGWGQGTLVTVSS VL: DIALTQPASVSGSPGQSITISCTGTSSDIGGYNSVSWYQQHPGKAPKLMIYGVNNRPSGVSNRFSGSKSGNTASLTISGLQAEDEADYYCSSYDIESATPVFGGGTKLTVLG
Measurement Units: nM
Quantitative Result: 30
--
Binder: Example 80, conjugate of anti-mesothelin antibody MF-Ta (antibody, human IgG1, lambda, V domains shown, toxophore-linker on Cys sulfur, sites not given) VH: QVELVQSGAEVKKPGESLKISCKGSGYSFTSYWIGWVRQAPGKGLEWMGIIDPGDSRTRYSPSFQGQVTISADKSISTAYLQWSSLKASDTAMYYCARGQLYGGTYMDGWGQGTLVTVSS VL: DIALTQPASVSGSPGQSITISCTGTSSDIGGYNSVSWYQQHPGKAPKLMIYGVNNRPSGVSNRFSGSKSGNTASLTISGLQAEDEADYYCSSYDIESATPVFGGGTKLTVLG
Measurement Units: nM
Quantitative Result: 4.4

For the binder Example 156, conjugate of anti-mesothelin antibody MF-Ta (antibody, human IgG1, lambda, V domains shown, toxophore-linker, coupling residue not stated) VH: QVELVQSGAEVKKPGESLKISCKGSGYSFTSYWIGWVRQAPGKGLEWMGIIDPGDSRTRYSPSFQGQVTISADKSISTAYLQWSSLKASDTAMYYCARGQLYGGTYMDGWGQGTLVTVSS VL: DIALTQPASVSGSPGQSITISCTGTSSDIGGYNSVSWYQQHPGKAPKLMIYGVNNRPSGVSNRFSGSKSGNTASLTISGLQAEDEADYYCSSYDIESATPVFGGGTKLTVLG , give its reported IC50 (nM), HT29 meso+ cells, MTT proliferation assay. 4.6

For the binder Example 140, conjugate of anti-mesothelin antibody MF-Ta (antibody, human IgG1, lambda, V domains shown, toxophore-linker on Lys NH, sites not given) VH: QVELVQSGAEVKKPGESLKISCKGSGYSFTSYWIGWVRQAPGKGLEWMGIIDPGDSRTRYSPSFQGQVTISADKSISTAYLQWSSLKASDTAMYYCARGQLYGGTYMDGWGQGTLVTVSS VL: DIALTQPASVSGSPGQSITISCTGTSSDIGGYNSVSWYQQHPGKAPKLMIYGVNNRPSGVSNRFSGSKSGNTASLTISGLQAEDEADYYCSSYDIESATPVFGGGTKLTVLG , give its reported IC50 (nM), HT29 meso+ cells, MTT proliferation assay. 6.8

For the binder Example 81, conjugate of anti-mesothelin antibody MF-Ta (antibody, human IgG1, lambda, V domains shown, toxophore-linker on Cys sulfur, sites not given) VH: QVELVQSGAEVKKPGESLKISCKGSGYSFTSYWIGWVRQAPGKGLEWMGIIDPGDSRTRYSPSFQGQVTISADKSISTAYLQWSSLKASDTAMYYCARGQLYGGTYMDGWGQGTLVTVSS VL: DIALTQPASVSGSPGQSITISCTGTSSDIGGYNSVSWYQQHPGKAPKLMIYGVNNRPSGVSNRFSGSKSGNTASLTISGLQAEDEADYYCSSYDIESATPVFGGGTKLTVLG , give its reported IC50 (nM), HT29 meso+ cells, MTT proliferation assay. 0.02

For the binder Example 83, conjugate of anti-mesothelin antibody MF-Ta (antibody, human IgG1, lambda, V domains shown, toxophore-linker on Cys sulfur, sites not given) VH: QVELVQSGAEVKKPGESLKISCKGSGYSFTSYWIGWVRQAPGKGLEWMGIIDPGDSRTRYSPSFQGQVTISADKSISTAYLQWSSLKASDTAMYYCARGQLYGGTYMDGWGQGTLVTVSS VL: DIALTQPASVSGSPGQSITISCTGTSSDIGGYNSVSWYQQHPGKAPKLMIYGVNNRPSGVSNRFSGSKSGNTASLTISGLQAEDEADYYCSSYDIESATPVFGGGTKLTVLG , give its reported IC50 (nM), HT29 meso+ cells, MTT proliferation assay. 0.3

For the binder Example 114, conjugate of anti-mesothelin antibody MF-Ta (antibody, human IgG1, lambda, V domains shown, toxophore-linker on Cys sulfur, sites not given) VH: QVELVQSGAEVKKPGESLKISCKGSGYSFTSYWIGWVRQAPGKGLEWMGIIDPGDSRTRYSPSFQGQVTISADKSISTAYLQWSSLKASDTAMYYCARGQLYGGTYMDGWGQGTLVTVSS VL: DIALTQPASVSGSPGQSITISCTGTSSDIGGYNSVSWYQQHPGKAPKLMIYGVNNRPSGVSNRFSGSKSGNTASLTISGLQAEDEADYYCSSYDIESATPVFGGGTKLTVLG , give its reported IC50 (nM), HT29 meso+ cells, MTT proliferation assay. 0.6
